Below: a set of entries, each annotated with reported yeast fitness (ln).
B1: tRNA (parent)
chain: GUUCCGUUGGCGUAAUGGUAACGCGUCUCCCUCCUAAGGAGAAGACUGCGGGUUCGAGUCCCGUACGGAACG

# Variants of: B1
# run-description: yeast fitness, log relative to wild type (ln ratio); higher = fitter; tRNA-Arg(CCU), competitive growth, 37 C, 1 M NaCl
experimental-readout: yeast fitness (ln)

{"polymer-sequence": "AGUCCGUUGGCGUAAUGGUAACGCGUCUCCCUCCUAAGGAGACGAUUGCGGGUUCGAGUCCCGUAUGGAGUG [G1A U2G A43C C46U C66U A70G C71U]", "recorded-measurement": -0.243}
{"polymer-sequence": "AUUCCUUUGGCGUAAUGGUAACGCGUUUCCCUCCUAAGGAGAAGAUUGCGGGUUCGAGUCCCGUAUGGAGCG [G1A G6U C27U C46U C66U A70G]", "recorded-measurement": -0.234}
{"polymer-sequence": "AUUCCAUUGGCGUAAUGGUAACGCGUCUCCCUCCUAAGGAGACGAUUGCGGGUUCGAGUCCCGUACGGGGUG [G1A G6A A43C C46U A69G A70G C71U]", "recorded-measurement": -0.252}
{"polymer-sequence": "GGUCCAUUGGCGUAAUGGUAACGCGUUUCCCUCCUAAGGAGAAGACUGCGGGUUCGAGUCCCGUACGGGACG [U2G G6A C27U A69G]", "recorded-measurement": -0.24}
{"polymer-sequence": "GCUCCGUUGGCGUAAUGGUAACGCGUCUCCCUCCUAAGGAGACGAUUGCGGGUUCGAGUCCCGUACGGAUUG [U2C A43C C46U A70U C71U]", "recorded-measurement": -0.0761}
{"polymer-sequence": "GCUCCAUUGGCGUAAUGGUAACGCGUUUCCCUCCUAAGGAGAAGAUUGCGGGUUCGAGUCCCGUAUGGGAUG [U2C G6A C27U C46U C66U A69G C71U]", "recorded-measurement": -0.271}
{"polymer-sequence": "GUUCCUUUGGCGUAAUGGUAACGCGUCUCCCUCCUAAGGAGACGAUUGCGGGUUCGAGUCCCGUACGGGUUG [G6U A43C C46U A69G A70U C71U]", "recorded-measurement": -0.438}
{"polymer-sequence": "GGUCCAUUGGCGUAAUGGUAACGCGUUUCCCUCCUAAGGAGAAGACUGCGGGUUCGAGUCCCGUAAGGAAUG [U2G G6A C27U C66A C71U]", "recorded-measurement": -0.216}
{"polymer-sequence": "AUUCCUUUGGCGUAAUGGUAACGCGUUUCCCUCCUAAGGAGAAGAUUGCGGGUUCGAGUCCCGUAUGGGGUG [G1A G6U C27U C46U C66U A69G A70G C71U]", "recorded-measurement": -0.388}
{"polymer-sequence": "GUUCCAUUGGCGUAAUGGUAACGCGUCUCCCUCCUAAGGAGAAGAUUGCGGGUUCGAGUCCCGUACGGGAUG [G6A C46U A69G C71U]", "recorded-measurement": -0.109}
{"polymer-sequence": "GUUCCUUUGGCGUAAUGGUAACGCGUUUCCCUCCUAAGGAGAAGACUGCGGGUUCGAGUCCCGUACGGAGUG [G6U C27U A70G C71U]", "recorded-measurement": -0.368}
{"polymer-sequence": "GUUCCUUUGGCGUAAUGGUAACGCGUUUCCCUCCUAAGGAGAAGAUUGCGGGUUCGAGUCCCGUAUGGAGUG [G6U C27U C46U C66U A70G C71U]", "recorded-measurement": -0.245}
{"polymer-sequence": "ACUCCGUUGGCGUAAUGGUAACGCGUCUCCCUCCUAAGGAGAAGAUUGCGGGUUCGAGUCCCGUACGGGGUG [G1A U2C C46U A69G A70G C71U]", "recorded-measurement": 0.00686}
{"polymer-sequence": "AGUCCAUUGGCGUAAUGGUAACGCGUUUCCCUCCUAAGGAGACGAUUGCGGGUUCGAGUCCCGUAAGGAUCG [G1A U2G G6A C27U A43C C46U C66A A70U]", "recorded-measurement": -0.219}
{"polymer-sequence": "GCUCCGUUGGCGUAAUGGUAACGCGUCUCCCUCCUAAGGAGAAGAUUGCGGGUUCGAGUCCCGUAUGGAUCG [U2C C46U C66U A70U]", "recorded-measurement": -0.2}
{"polymer-sequence": "GCUCCUUUGGCGUAAUGGUAACGCGUUUCCCUCCUAAGGAGAAGAUUGCGGGUUCGAGUCCCGUAUGGAAUG [U2C G6U C27U C46U C66U C71U]", "recorded-measurement": -0.183}
{"polymer-sequence": "AUUCCUUUGGCGUAAUGGUAACGCGUCUCCCUCCUAAGGAGAAGAUUGCGGGUUCGAGUCCCGUACGGAGUG [G1A G6U C46U A70G C71U]", "recorded-measurement": -0.227}
{"polymer-sequence": "GUUCCUUUGGCGUAAUGGUAACGCGUCUCCCUCCUAAGGAGAAGAUUGCGGGUUCGAGUCCCGUACGGGGCG [G6U C46U A69G A70G]", "recorded-measurement": -0.158}
{"polymer-sequence": "AUUCCGUUGGCGUAAUGGUAACGCGUUUCCCUCCUAAGGAGACGACUGCGGGUUCGAGUCCCGUAAGGAUCG [G1A C27U A43C C66A A70U]", "recorded-measurement": -0.136}
{"polymer-sequence": "GGUCCAUUGGCGUAAUGGUAACGCGUUUCCCUCCUAAGGAGACGAUUGCGGGUUCGAGUCCCGUAAGGGUUG [U2G G6A C27U A43C C46U C66A A69G A70U C71U]", "recorded-measurement": -0.65}
{"polymer-sequence": "GUUCCAUUGGCGUAAUGGUAACGCGUCUCCCUCCUAAGGAGAAGAUUGCGGGUUCGAGUCCCGUACGGAGCG [G6A C46U A70G]", "recorded-measurement": -0.226}
{"polymer-sequence": "GCUCCGUUGGCGUAAUGGUAACGCGUCUCCCUCCUAAGGAGACGAUUGCGGGUUCGAGUCCCGUACGGGUCG [U2C A43C C46U A69G A70U]", "recorded-measurement": -0.144}
